# credit: patent US10703756B2

Measured half-life at 1 μM, listed per entry.
Assay: Stability of JAK3 Covalent Inhibitors in Human Whole Blood
Format: in vitro ADME
Conditions: both sexes, 1 μM test compound, 37° C., 180 min incubation, read-out: Human blood stability t1/2
readoutType: half-life at 1 μM (h)

> print(dat)
                                    compound  censoringoperator  measuredresult
 1  C=CC(=O)N1CC[C@H](Nc2cnc3[nH]cc(C(=O)NCC)c3n2)[C@@H](OC)C1 (single isomer, unassigned)                  >               6
 2  C=CC(=O)N1C[C@@H](CF)C[C@@H](Nc2ncnc3[nH]ccc23)C1 (single isomer, unassigned)                  =            2.28
 3  C=CC(=O)N1C[C@@H](Oc2cnc3[nH]cc(C(=O)N[C@@H](C)COC)c3n2)CC[C@H]1C (racemic)                  =             4.8
 4  C=CC(=O)N1CCN(c2cnc3[nH]cc(C(=O)N[C@@H](C)COC)c3n2)CC1                  =            2.22
 5  C=CC(=O)N1C[C@@H](CC#N)C[C@@H](Nc2ncnc3[nH]ccc23)C1 (racemic) [Example 105]                  =             2.3
 6  C=CC(=O)N1CC[C@@H](Nc2cnc3[nH]cc(C(=O)NCC)c3n2)[C@@H](C)C1 (single isomer, unassigned) [Example 38]                  =            4.38
 7  C=CC(=O)N1CCN(c2cnc3[nH]cc(C(=O)NC(C)COC)c3n2)CC1(C)C (racemic)                  >               6
 8  C=CC(=O)N1CCC(Nc2cnc3[nH]cc(C(=O)NCc4ccccc4F)c3n2)CC1                  >               6
 9  C=CC(=O)N1CC[C@H](Nc2cnc3[nH]cc(C(=O)NCC4CCCC4)c3n2)[C@H](OC)C1                  >               6
10  C=CC(=O)N1CCC(Oc2cnc3[nH]cc(-c4n[nH]c(C)n4)c3n2)CC1                  =            3.77

---

Measured log10 of IC50, listed per entry.
Molecular target: JAK3 enzyme (Homo sapiens, UniProt P52333)
Sequence (P52333 whole entry, species assumed): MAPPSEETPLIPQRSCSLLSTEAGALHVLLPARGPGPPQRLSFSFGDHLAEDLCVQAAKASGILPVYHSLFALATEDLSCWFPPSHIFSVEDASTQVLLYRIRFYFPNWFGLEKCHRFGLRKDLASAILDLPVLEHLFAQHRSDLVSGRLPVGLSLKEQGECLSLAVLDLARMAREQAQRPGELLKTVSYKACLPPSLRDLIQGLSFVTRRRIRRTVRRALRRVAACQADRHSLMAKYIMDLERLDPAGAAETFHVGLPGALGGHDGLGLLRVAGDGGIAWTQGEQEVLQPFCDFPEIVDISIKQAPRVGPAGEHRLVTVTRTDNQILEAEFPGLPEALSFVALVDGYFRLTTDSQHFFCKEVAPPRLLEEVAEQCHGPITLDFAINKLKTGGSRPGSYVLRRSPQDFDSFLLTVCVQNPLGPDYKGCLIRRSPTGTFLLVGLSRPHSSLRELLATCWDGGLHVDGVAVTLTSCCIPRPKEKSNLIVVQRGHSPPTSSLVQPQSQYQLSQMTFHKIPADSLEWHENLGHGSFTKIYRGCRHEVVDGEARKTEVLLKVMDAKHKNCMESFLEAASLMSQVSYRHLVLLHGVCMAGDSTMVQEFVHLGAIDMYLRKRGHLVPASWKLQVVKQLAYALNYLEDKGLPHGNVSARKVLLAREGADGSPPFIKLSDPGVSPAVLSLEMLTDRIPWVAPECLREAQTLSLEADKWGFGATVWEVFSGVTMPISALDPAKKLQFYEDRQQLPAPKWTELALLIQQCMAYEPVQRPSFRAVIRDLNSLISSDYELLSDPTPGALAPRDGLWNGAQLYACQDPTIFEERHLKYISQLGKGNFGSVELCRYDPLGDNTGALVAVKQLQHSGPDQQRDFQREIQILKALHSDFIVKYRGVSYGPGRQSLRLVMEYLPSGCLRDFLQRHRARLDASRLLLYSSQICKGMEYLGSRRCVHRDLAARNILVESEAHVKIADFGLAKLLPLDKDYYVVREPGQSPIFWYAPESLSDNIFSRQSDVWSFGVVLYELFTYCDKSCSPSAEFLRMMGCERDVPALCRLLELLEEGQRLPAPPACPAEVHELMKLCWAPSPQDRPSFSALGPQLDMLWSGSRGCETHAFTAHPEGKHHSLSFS
Assay: JAK Caliper Enzyme Assay at 1 mM ATP
Format: biochemical
readoutType: log10 of IC50 (log10 of the value in nM)

> print(dat)
                                    compound  measuredresult
 1  C=CC(=O)N1C[C@@H](CO)C[C@@H](Nc2ncnc3[nH]ccc23)C1 (single isomer, unassigned) [Example 98]            2.18
 2  C#CCNC(=O)c1c[nH]c2ncc(N3CCN(C(=O)C=C)C(C)(C)C3)nc12 [Example 83]            3.05
 3  C=CC(=O)N1CC[C@H](Nc2cnc3[nH]cc(C(=O)N[C@@H](C)COC)c3n2)C[C@@H]1C (relative stereo) [Example 55]            2.28
 4  C=CC(=O)N1C[C@@H](Nc2cnc3[nH]cc(C(=O)N[C@@H](C)COC)c3n2)CC[C@H]1C (single isomer, unassigned) [Example 67]            1.40
 5  C=CC(=O)N1CCC(Nc2cnc3[nH]cc(C(=O)NCCC)c3n2)CC1 [Example 170]            0.60
 6  C=CC(=O)N1CC[C@@H](Nc2cnc3[nH]cc(C(=O)NCCCC(F)(F)F)c3n2)[C@@H](OC)C1 [Example 308]            1.68
 7  C=CC(=O)N1CCN(c2cnc3[nH]cc(C(=O)NCC(F)(F)F)c3n2)CC1(C)C [Example 286]            3.01
 8  C=CC(=O)N1C[C@H](CC#N)C[C@H](Nc2ncnc3[nH]ccc23)C1 (single isomer, unassigned) [Example 107]            3.09
 9  C=CC(=O)N1CC[C@H](Nc2cnc3[nH]cc(C(=O)NCC)c3n2)C[C@H]1C (racemic) [Example 40]            1.38
10  C=CC(=O)N1CC[C@@H](N(C)c2cnc3[nH]cc(C(=O)NCC)c3n2)C1 (single isomer, unassigned) [Example 29]            3.92
11  C=CC(=O)N1CC[C@H](Nc2cnc3[nH]cc(C(=O)NCC4CCCC4)c3n2)[C@H](OC)C1 [Example 284]            1.62
12  C=CC(=O)N1CC[C@@H](Nc2cnc3[nH]cc(C(=O)NCC(C)(C)C)c3n2)[C@@H](OC)C1 [Example 300]            1.96
13  C=CC(=O)N1CCC(Oc2cnc3[nH]cc(C(=O)N[C@@H](C)COC)c3n2)CC1 [Example 228]            1.26
14  C=CC(=O)N1CCC(Nc2cnc3[nH]cc(C(=O)NCC(C)CC(F)(F)F)c3n2)CC1C (racemic) [Example 310]            2.23
